A collection of compounds and their measured logP
# ASSAY METHOD TEXT: Partition coefficient (logP)
# Format: physicochemical
# PROTOCOL CONDITIONS: octanol/water
Write no unit; give the number alone.

Example compounds with recorded logP:
CC(C)C(=CC(=O)O[C@@H](CO)COC(=O)CC(C(C)C)C(C)C)C(C)C | 5.7
CC(C)=C1CC(CO)(COC(=O)CC(C(C)C)C(C)C)OC1=O (stereo not given) | 3.2
CC(C)C/C=C1\CC(CO)(COC(=O)CC(C(C)C)C(C)C)OC1=O (stereo not given) | 4.1

Query (compound): CC(C)C/C=C1/CC(CO)(COC(=O)CC(C(C)C)C(C)C)OC1=O (stereo not given) ; field requested: logP
4.1

So what does the record say about logP for CC(C)=CC(=O)O[C@@H](CO)COC(=O)CC(C(C)C)C(C)C ?
3.9

What logP value was documented for this compound, CC(C)CC(=O)OC[C@H](CO)OC(=O)C=C(C(C)C)C(C)C ?
3.9

Bench note: what logP did CC(C)CC(=O)OCC1(CO)C/C(=C\CC(C(C)C)C(C)C)C(=O)O1 (stereo not given) show?
4.1

// query logP value for entry CC(C)C(CC(=O)OC[C@H](CO)OC(=O)CC(C(C)C)C(C)C)C(C)C
5.8

Endpoint output: logP of CC(C)CC(=O)OCC1(CO)C/C(=C/CC(C(C)C)C(C)C)C(=O)O1 (stereo not given) . Value?
4.1

Look up logP: CC(C)CC(=O)OCC1(CO)CC(=C(C(C)C)C(C)C)C(=O)O1 (stereo not given)
3.2
